molecular target: HSF1 (Homo sapiens, UniProt Q00613); construct: functionally linked to an hsp70b promoter and therefore controlled by endogenous HSF1; endogenous in cells; host or cells: HeLa cells / HeLa-derived cell line Z74; test: Z74 cell-based reporter assay: heat-induced RLuc expression controlled by endogenous HSF1; conditions: Z74 cells; 25 μM IHSF; 2 h exposure, 43° C. 30 min, 6 h at 37° C.; read-out: Inhibition of HSF1 activity at 25 μM IHSF [RLuc] (%)
experimental endpoint: inhibition at 25 µM (%)

Consider the worked cases shown below.
smi | inhibition at 25 µM, %
CCOC(=O)/C=C/C(=O)Nc1nc2ccccc2s1 | 56
CCOC(=O)/C=C/C(=O)Nc1cc(C)no1 | 70
CCCCOC(=O)/C=C/C(=O)Nc1nccs1 | 52
O=C(/C=C/c1ncccn1)Nc1nccs1 | 31
CCOC(=O)/C=C/C(=O)Nc1nc(-c2ccccc2)cs1 | 86
CCOC(=O)/C=C/C(=O)Nc1nc(-c2cccnc2)cs1 | 74

A: CCOC(=O)/C=C/C(=O)Nc1ccnc2ccccc12
B: CCOC(=O)/C=C/C(=O)Nc1ccon1
C: CCN(CC)C(=O)/C=C/C(=O)Nc1nc(C)cs1
*Q* Order the items by recorded inhibition at 25 µM; the first position goes to the largest value. Use the labels to give the ranking in the order requested.
*A* A, B, C
(A: 61%, B: 37%, C: 19%)

A: CCOC(=O)/C=C/C(=O)N(CCc1ccccn1)c1nccs1
B: CCOC(=O)/C=C/C(=O)Nc1ccncc1
*Q* Could you tell me which of A and B has the lower inhibition at 25 µM reading? # reply format: chosen label
*A* A
(A: 26%, B: 53%)

* * *

target: HSF1 (Homo sapiens, UniProt Q00613); construct: functionally linked to an hsp70b promoter and therefore controlled by endogenous HSF1; endogenous in cells; host or cells: HeLa cells / HeLa-derived cell line Z74; experiment: Z74 cell-based reporter assay: heat-induced RLuc expression controlled by endogenous HSF1; conditions: Z74 cells; 12.5 μM IHSF; negative values marked *: compound enhanced rLuc activity; read-out: Inhibition of HSF1 activity at 12.5 μM IHSF [RLuc] (%)
experimental endpoint: inhibition at 12.5 µM (%)

Study these solved cases before continuing.
compound | unit of measurement | inhibition at 12.5 µM
Cc1csc(NC(=O)/C=C/C(=O)N(C)C)n1 | % | 12
O=C(/C=C/c1nnco1)Nc1nccs1 | % | 22
CN(C(=O)/C=C/C1=NCCCO1)c1ncc(-c2cccnc2)s1 | % | 99

1: CCOC(=O)/C=C/C(=O)Nc1ccn(C)n1
2: O=C(/C=C/C1=NCCCO1)Nc1nccs1
*Q* Field: lower inhibition at 12.5 µM | Options: 1 / 2 Pick one; state its label.
*A* 1
(1: 0%, 2: 78%)

A: CCOC(=O)/C=C/C(=O)Nc1ncc(-c2ccccc2)s1
B: CCOC(=O)/C=C/C(=O)Nc1ncc(C)s1
*Q* Name the one with the greater inhibition at 12.5 µM value, either A or B as given. Use the label to indicate which entry you chose.
*A* A

* * *

Target: HSF1 (Homo sapiens)
Construct: functionally linked to an hsp70b promoter and therefore controlled by endogenous HSF1; endogenous in cells
Sequence (Q00613 1-529): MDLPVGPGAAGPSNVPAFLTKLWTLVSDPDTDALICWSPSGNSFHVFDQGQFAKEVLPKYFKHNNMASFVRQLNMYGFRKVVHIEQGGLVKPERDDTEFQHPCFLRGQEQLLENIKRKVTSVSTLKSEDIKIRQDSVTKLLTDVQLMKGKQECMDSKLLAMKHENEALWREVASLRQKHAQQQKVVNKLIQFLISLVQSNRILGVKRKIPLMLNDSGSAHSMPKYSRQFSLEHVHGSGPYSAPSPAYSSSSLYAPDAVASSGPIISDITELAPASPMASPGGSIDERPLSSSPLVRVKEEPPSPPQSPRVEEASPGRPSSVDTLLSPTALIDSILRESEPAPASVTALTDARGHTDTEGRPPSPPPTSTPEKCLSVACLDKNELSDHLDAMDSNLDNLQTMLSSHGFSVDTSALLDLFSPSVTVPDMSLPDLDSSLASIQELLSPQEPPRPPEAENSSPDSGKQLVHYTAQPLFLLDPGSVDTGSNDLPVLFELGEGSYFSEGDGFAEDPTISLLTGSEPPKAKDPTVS
Test: Z74 cell-based reporter assay: heat-induced RLuc expression controlled by endogenous HSF1
Conditions: Z74 cells, inhibition of HSF1 activity [RLuc]
pIC50: −log10 of the molar value.
experimental endpoint: pIC50

Below are worked cases with known answers.
smi | system name | pIC50
CCOC(=O)/C=C/C(=O)Nc1nc(C)c(C)s1 | HSF1 (Homo sapiens) | 5.13
CCOC(=O)/C=C/C(=O)Nc1ncc(-c2ccccc2)s1 | HSF1 (Homo sapiens) | 5.15
CCOC(=O)/C=C/C(=O)N(C)c1nccs1 | HSF1 (Homo sapiens) | 5.24

A: CCOC(=O)/C=C/C(=O)Nc1nc(C)cs1
B: O=C(/C=C/c1ncno1)Nc1nccs1
*Q* Recorded pIC50 values differ for A and B ; which one is higher? Write the label of whichever entry you select.
*A* A
